assayedSystem: human PTP1B (Homo sapiens)
Sequence (P18031 1-435): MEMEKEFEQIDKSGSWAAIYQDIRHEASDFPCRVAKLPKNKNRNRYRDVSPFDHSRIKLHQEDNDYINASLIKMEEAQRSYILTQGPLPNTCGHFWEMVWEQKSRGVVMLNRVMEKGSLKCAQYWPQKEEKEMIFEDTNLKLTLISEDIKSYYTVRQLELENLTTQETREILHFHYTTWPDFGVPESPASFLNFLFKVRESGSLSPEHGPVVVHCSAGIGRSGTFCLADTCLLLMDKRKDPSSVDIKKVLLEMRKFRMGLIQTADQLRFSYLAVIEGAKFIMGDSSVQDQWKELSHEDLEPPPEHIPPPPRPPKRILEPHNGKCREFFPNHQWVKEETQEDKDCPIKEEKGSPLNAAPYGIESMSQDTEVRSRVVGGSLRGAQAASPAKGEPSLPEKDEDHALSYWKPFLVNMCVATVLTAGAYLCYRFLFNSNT
propertyLabel: IC50 (µM)
API: value field is a number in µM; no unit string.

Query: Look at this molecule and give its reported IC50. CC1(C)CCC2(COC(=O)c3ccccc3C(=O)O)CCC3(C)C(=CCC4C5(C)CCC(=O)C(C)(C)C5CCC43C)C2C1 (stereo not shown) [Compound C10a]
Reply: 3.1

====

assayedSystem: human PTP1B (Homo sapiens, UniProt P18031)
Construct: purchased Sigma
protocolDescription: PTP1B inhibition assay (pNPP substrate, UV absorption)
Assay type: biochemical
conditionsUsed: PTP1B inhibition at 10 μM; performed in triplicate
Protocol: The inhibitory assay was performed using human PTP1B (purchased from Sigma) and p-nitrophenylphosphate (pNPP) as substrate by UV absorption. 400 nmol pNPP were dissolved in H2O and 48 μL of the solution was added to a 100 μL reaction. The indicated amount of synthetic compounds was diluted in DMSO at a concentration of 5 mM. […] UV–Vis absorption was detected at 410 nm using a Tecan Infinite M1000 plate reader.
Here the recorded inhibition at 10 µM is given for each entry.
API: value field is a number in %; no unit string.

{"molecule": "CC(C)C1=CC2=CCC3C(C)(C)CCCC3(C)C2CC1 (stereo not shown)", "inhibition at 10 µM / %": 0}
{"molecule": "CC(C)C1=CC2=CCC3C(C)(CO)CCCC3(C)C2CC1 (stereo not shown)", "inhibition at 10 µM / %": 3}
{"molecule": "CC1(C)CCCC2(C)c3ccc(O)cc3CCC12 (stereo not shown) [Compound 14, 13-Hydroxy-8,11,13-podocarpatriene]", "inhibition at 10 µM / %": 15}
{"molecule": "C[C@@]1(C(=O)O)CCC[C@]2(C)c3ccc(O)cc3CCC12 (stereo partly shown)", "inhibition at 10 µM / %": 1}
{"molecule": "CCOC(=O)[C@]1(C)CCC[C@]2(C)c3ccc(C(C)(C)O)cc3CCC12 (stereo partly shown) [Compound 4a, Ethyl 15-hydroxydehydroabietate]", "inhibition at 10 µM / %": 4}
{"molecule": "CC(C)(O)c1ccc2c(c1)CC[C@H]1[C@](C)(C(=O)O)CCC[C@]21C [Compound 3, 15-Hydroxydehydroabieta-18-oic acid]", "inhibition at 10 µM / %": 19}
{"molecule": "CC(C)C1=CC2=CC[C@@H]3[C@](C)(CCC[C@@]3(C)C(=O)O)[C@H]2CC1", "inhibition at 10 µM / %": 35}
{"molecule": "CC(C)(O)c1ccc2c(c1)CCC1C(C)(C)CCCC21C (stereo not shown) [Compound 13, 15-Hydroxydehydroabietane]", "inhibition at 10 µM / %": 22}

Query: Look at this molecule and give its reported inhibition at 10 µM. CC(C)(O)c1ccc2c(c1)CCC1[C@](C)(CO)CCC[C@]21C (stereo partly shown)
Reply: 0

Query: Look at this molecule and give its reported inhibition at 10 µM. Cc1ccc(S(=O)(=O)OCC2(C)CCCC3(C)C4CCC(C(C)C)=CC4=CCC23)cc1 (stereo not shown)
Reply: 2
